# Test system: Escherichia coli TOP10;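 further: peptides expressed intracellularly from a pBAD plasmid library in pooled LB shake-flask culture, induced with 0.3% L-arabinose, DNA abundance read by NGS, three biological replicates, DESeq2 with apeglm shrinkage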
# protocolText: shrunken log2 fold change of peptide-encoding DNA abundance (4.5 h post-induction vs induction); higher = less antimicrobial activity (less host growth inhibition)
# testContext: time post-induction: 4.5 h; library: site-saturation at positions 5, 18, 19, 20
Listed below: shrunken log2 fold change values for each entry.
Form: value (number only, do not type unit).

A selection of reference data follows.
# sequenceRecord, endpointName, reported
measured = [
    ("RRIRGRPPRLPRPRPRPTRFPRP", "shrunken log2 fold change", 0.19),
    ("RRIRYRPPRLPRPRPRPTAVPRP", "shrunken log2 fold change", -0.169),
    ("RRIRQRPPRLPRPRPRPREMPRP", "shrunken log2 fold change", 0.0554),
    ("RRIRQRPPRLPRPRPRPRCDPRP", "shrunken log2 fold change", -0.255),
    ("RRIRFRPPRLPRPRPRPYCNPRP", "shrunken log2 fold change", -1.06),
    ("RRIRARPPRLPRPRPRPDSMPRP", "shrunken log2 fold change", 0.02),
]

IN: Look up shrunken log2 fold change for this sequence: `RRIRYRPPRLPRPRPRPYKMPRP`
OUT: -0.277

IN: Consider the sequence `RRIRERPPRLPRPRPRPDGTPRP` and give its measured shrunken log2 fold change.
OUT: 0.0123

IN: Query: shrunken log2 fold change; subject: `RRIRPRPPRLPRPRPRPDIRPRP`
OUT: -0.0755
